Source listed as patent US9902728B2.

Target: USP7 (Homo sapiens, UniProt Q93009)
Construct: USP7, construct USP7 (208-1102) 6*His, Viva Biotech; 6xHis (C); purchased Viva Biotech
Sequence (Q93009 208-1102): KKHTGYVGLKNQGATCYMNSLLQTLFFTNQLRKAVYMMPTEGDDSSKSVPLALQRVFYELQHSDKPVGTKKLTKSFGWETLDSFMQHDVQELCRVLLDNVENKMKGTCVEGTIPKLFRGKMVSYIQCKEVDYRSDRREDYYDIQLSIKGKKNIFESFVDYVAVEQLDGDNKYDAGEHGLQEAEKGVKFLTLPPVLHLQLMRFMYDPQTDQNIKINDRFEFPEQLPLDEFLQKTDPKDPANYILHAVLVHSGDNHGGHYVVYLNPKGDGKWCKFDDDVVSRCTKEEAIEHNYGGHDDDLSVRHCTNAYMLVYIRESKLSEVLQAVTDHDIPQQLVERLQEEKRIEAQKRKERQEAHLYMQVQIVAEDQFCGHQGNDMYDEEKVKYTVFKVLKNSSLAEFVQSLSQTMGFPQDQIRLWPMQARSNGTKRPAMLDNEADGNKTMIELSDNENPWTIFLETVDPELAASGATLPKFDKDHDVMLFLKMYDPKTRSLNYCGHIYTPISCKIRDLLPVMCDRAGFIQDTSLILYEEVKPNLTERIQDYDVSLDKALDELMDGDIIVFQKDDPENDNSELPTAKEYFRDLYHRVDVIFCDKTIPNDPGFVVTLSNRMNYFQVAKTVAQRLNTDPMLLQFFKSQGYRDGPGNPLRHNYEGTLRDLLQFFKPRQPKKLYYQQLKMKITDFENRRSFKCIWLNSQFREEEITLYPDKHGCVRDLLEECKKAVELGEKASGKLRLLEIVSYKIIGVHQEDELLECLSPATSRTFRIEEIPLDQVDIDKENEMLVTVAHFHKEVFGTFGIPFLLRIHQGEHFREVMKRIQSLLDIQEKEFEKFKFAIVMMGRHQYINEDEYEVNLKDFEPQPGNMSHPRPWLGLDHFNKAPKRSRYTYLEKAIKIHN
Experiment: USP7 Assay A (Ubitquin-Rhodamine 110 Assay)
Assay type: biochemical
Conditions: USP7 assay A and B (table does not say which assay per compound); read-out: USP7_IC50
MEASURED_ATTRIBUTE: IC50

O=C(c1ccc(Cl)cc1)N1CCC(O)(Cn2cnc3c(cnn3-c3ccc(F)cc3)c2=O)CC1 | 200 to 1000 nM

Entry `CC(=O)NC1CCN(c2ccc(-n3ncc4c(=O)n(CC5(O)CCN(C(=O)C6CC6)CC5)cnc43)cc2)CC1` : reported IC50 = ?
1000 to 10000 nM

Entry `CCN(Cc1ccc(-n2ncc3c(=O)n(CC4(O)CCN(C(=O)C5CC5)CC4)cnc32)cc1)C1CCCCC1` : reported IC50 = ?
1000 to 10000 nM

Entry `O=C(c1ccc(NC2CC2)cc1)N1CCC(O)(Cn2cnc3c(cnn3-c3ccccc3)c2=O)CC1` : reported IC50 = ?
200 to 1000 nM

Entry `Cc1ccc(-n2ncc3c(=O)n(CC4(O)CCN(C(=O)C[C@@H](C)c5ccccc5)CC4)cnc32)cc1` : reported IC50 = ?
< 200 nM

Entry `O=C(Nc1ccc(F)cc1)c1ccc(-n2ncc3c(=O)n(CC4(O)CCN(C(=O)C5CC5)CC4)cnc32)cc1` : reported IC50 = ?
1000 to 10000 nM

Entry `O=C(C[C@@H](c1ccccc1)C(F)(F)F)N1CCC(O)(Cn2cnc3c(cnn3-c3ccccc3)c2=O)CC1` : reported IC50 = ?
< 200 nM

###

Target: USP7 (Homo sapiens)
Construct: USP7, construct USP7 (208-1102) 6*His, Viva Biotech; 6xHis (C); purchased Viva Biotech
Assay: USP7 Assay A (Ubitquin-Rhodamine 110 Assay)
Assay type: biochemical
Conditions: USP7 assay A and B (table does not say which assay per compound); read-out: USP7_IC50
MEASURED_ATTRIBUTE: IC50

# example entries with known answers
CN(C)C(=O)N1CCC(O)(Cn2cnc3c(cnn3-c3ccc(N4CCN5CCCCC5C4)cc3)c2=O)CC1 (stereo not shown) | 1 to 10 µM
C[C@@H](CC(=O)N1CCC(O)(Cn2cnc3c(cnn3-c3ccc(-c4ccc(F)cc4)cc3)c2=O)CC1)n1cccn1 | > 10 µM
CNC(=O)Nc1ccc(-n2ncc3c(=O)n(CC4(O)CCN(C(=O)C5CC5)CC4)cnc32)cc1 | 1 to 10 µM
O=C(C1CC1)N1CCC(O)(Cn2cnc3c(cnn3-c3ccc(-c4ccc(OC5CCNC5)cc4)cc3)c2=O)CC1 (stereo not shown) | 0.2 to 1 µM
O=C(c1ccc(OC2CC2)cc1)N1CCC(O)(Cn2cnc3c(cnn3-c3ccc(F)cc3)c2=O)CC1 | 1 to 10 µM
C[C@](O)(c1ccc(C(=O)N2CCC(O)(Cn3cnc4c(cnn4-c4ccc(F)cc4)c3=O)CC2)cc1)C(F)(F)F (single isomer, unassigned) | 1 to 10 µM
O=C(C1CC1)N1CCC(O)(Cn2cnc3c(cnn3-c3ccccc3)c2=O)CC1 | 1 to 10 µM
CN(Cc1ccccc1)c1ccc(C(=O)N2CCC(O)(Cn3cnc4c(cnn4C)c3=O)CC2)cc1 | 0.2 to 1 µM

Which measured IC50 belongs to `O=C(C1CC1)N1CCC(O)(Cn2cnc3c(cnn3-c3cccc(NCCN4CCOCC4)c3)c2=O)CC1` , tested on USP7 (Homo sapiens)?
1 to 10 µM

Which measured IC50 belongs to `CN1CCN(c2ccc(C(=O)N3CCC(O)(Cn4cnc5c(cnn5-c5ccc(F)cc5)c4=O)CC3)cc2F)CC1` , tested on USP7 (Homo sapiens)?
1 to 10 µM

Which measured IC50 belongs to `O=C(C1CC1)N1CCC(O)(Cn2cnc3c(cnn3-c3ccc(NS(=O)(=O)Cc4ccc(F)cc4)cc3)c2=O)CC1` , tested on USP7 (Homo sapiens)?
1 to 10 µM
